Here, each record is paired with measured growth data.
Tested on: OVCAR-3 ovarian
ASSAY_OVERVIEW: NCI-60 one-dose screen, 48 h (100 = growth as untreated, 0 = no growth, -100 = all killed)
TEST_CONDITIONS: 10 µM
This is part of a sample that, as a whole, favours compounds with a hit. Of some 83,000 tested, about 20% had one in any assay. The source made the active and inactive calls. How the source made its calls: active means growth percent below 10; inactive means the rest.

Sample answers from the record:
# COMPOUND, SUBJECT_OF_TEST, growth
records = [
    ("COc1ccccc1[C@H]1C(C(=O)c2ccc(Cl)cc2)C2(N[C@@H]1c1ccccc1)C(=O)Nc1ccc(Cl)cc12 (stereo partly drawn)", "OVCAR-3 ovarian", "3.66% (active)"),
    ("Brc1ccc(N/N=C/c2c[nH]c3ccccc23)nc1", "OVCAR-3 ovarian", "19.5% (inactive)"),
    ("O=C(CSc1nnc(-c2ccc3nc(-c4ccccc4)[nH]c3c2)o1)Nc1ccc(Br)cc1", "OVCAR-3 ovarian", "73.9% (inactive)"),
    ("COc1cccc2nc(Nc3ccc(F)c(NC(=O)c4ccc(CN5CCN(C)CC5)c(C(F)(F)F)c4)c3)ccc12", "OVCAR-3 ovarian", "-33.3% (active)"),
    ("Cc1cccc2cc(-c3cc(-c4ccccc4)nc(=O)[nH]3)c(Cl)nc12", "OVCAR-3 ovarian", "91.4% (inactive)"),
    ("O=C(CSc1nnc(-c2c[nH]c3ccccc23)n1-c1ccccc1)Nc1ccc(C(=O)/C=C/c2ccccc2Cl)cc1", "OVCAR-3 ovarian", "80.6% (inactive)"),
    ("CC(C)Sc1nc(NC2CC2)c(C#N)c(-c2ccccc2)n1", "OVCAR-3 ovarian", "86.5% (inactive)"),
    ("O=S(=O)(Nc1ncccn1)c1ccc(-n2c(-c3ccc(Br)cc3)nc(-c3ccccc3)c2-c2ccccc2)cc1", "OVCAR-3 ovarian", "48.2% (inactive)"),
    ("CCOC(=O)c1c(CSc2ccccc2)n(C)c2cc(CN(C)C)c(O)c(CN(C)C)c12", "OVCAR-3 ovarian", "13.8% (inactive)"),
    ("Cc1noc2c(Cc3ccccc3)nn(CC(=O)N/N=C/c3ccc(Br)cc3)c(=O)c12", "OVCAR-3 ovarian", "-33.6% (active)"),
]

# growth (compound: O=C1Nc2ccc(Cl)cc2/C1=C/c1ccc(OCc2ccccn2)cc1 ) is 57.3% (inactive)

Data point: COc1ccc(OC)c(/C=N/NC(=O)c2ccc3nc(-c4ccc(Cl)cc4)[nH]c3c2)c1 ; growth = 89.2% (inactive)

The value of growth measured for the compound CCN1CCN(c2ccc(NC(=O)Nc3ccc(-c4cc(C(=O)NC)c5ncccc5n4)cc3)cc2C(F)(F)F)CC1 turned out to be -100% (active)

----------
System: NCI/ADR-RES ovarian
ASSAY_OVERVIEW: NCI-60 one-dose screen, 48 h (100 = growth as untreated, 0 = no growth, -100 = all killed)
TEST_CONDITIONS: 10 µM
About 83,000 compounds went through this panel and 20% of them were active in at least one assay; those are over-represented in the sample as a whole.
Label rule met when growth is strictly below 30%; at or above that, label rule not met.

Answered cases to consult:
# MOLECULE, ANSWER_LABEL
data = [
    ("Cc1ccc2nc(-c3ccc(-c4nnc(SCC(=O)Nc5ccc(Cl)cc5)o4)cc3)[nH]c2c1", "rule met"),
    ("CN(C(=O)c1ccc(C(C)(C)C)cc1)c1sc2c(c1C#N)CCC(=O)C2", "rule met"),
    ("O=C(CNc1nc(-c2ccccc2)cs1)Nc1ccc(Cl)cc1", "rule met"),
    ("O=C(CS(=O)(=O)c1oc(-c2ccc(Cl)cc2)nc1S(=O)(=O)c1ccc(Cl)cc1)N1CCOCC1", "rule met"),
    ("COc1ccc(/C(CSc2nnc(-c3c[nH]c4ccccc34)n2-c2ccccc2)=N/O)cc1", "rule not met"),
    ("O=c1[nH]c2ccccc2cc1CSc1ccc(Nc2nccc(-c3ccc(C(F)(F)F)cc3)n2)cc1", "rule met"),
    ("O=C(NO)c1ccc(CNC(=O)[C@H]2Cc3c([nH]c4ccccc34)[C@H](c3ccc(Cl)cc3)N2)cc1", "rule not met"),
    ("COc1cc(NC(=O)c2cc(-c3ccc(F)cc3F)ccc2O)cc(OC)c1OC", "rule not met"),
    ("Clc1cccc(N/N=C/c2c[nH]c3ccccc23)n1", "rule met"),
    ("O=C(c1ccc(O)cc1)C1[C@H](c2ccc(Br)cc2)[C@@H](c2ccccc2)NC12C(=O)Nc1ccccc12 (some centres undefined)", "rule met"),
]

Q: Hi there! Is growth for COc1ccc2c3nc4cc(C)c(C)cc4nc3n(CCN(C)C)c2c1 below 30%, do you know?
Ans: rule met

Q: Bench note: check whether CN1CCN(c2ccc(C(=O)/C=C/c3ccc(C#N)cc3)cc2)CC1 shows growth below 30%
Ans: rule not met

Q: Consider Cc1cc2nc3c4ccccc4n(CCO)c3nc2cc1C . Does its growth lie strictly below 30%?
Ans: rule not met

Q: Confirm or reject: growth of COc1ccc(C(=O)/C=C/c2cc(C(F)(F)F)cc(C(F)(F)F)c2)cc1S(N)(=O)=O lies strictly below 30%
Ans: rule met

Q: Quick check: does COc1cccc(-c2nn(-c3ccccc3)cc2-c2ccnc(NCCCNC(=O)Nc3ccc(F)cc3)c2)c1 have growth under 30%?
Ans: rule met

----------
System: HCT-15 colon
ASSAY_OVERVIEW: NCI-60 one-dose screen, 48 h
TEST_CONDITIONS: 10 µM
Compounds without any hit were thinned out: in the full panel of roughly 83,000, 20% have a hit. Activity calls are given as the source filed them. The calls were made as follows: active = growth percent below 10; inactive = the rest.
Field 'call' accepts 1 for active, 0 for inactive

Solved cases (4 shown):
# COMPOUND_STRUCTURE, ANSWER_LABEL
data = [
    ("O=C(NCCCCCCCCCC[P+](c1ccccc1)(c1ccccc1)c1ccccc1)c1ccc(-n2nc(-c3ccccc3O)nc2-c2ccccc2O)cc1", 1),
    ("CC(=O)NCC1=C(C)C=C2C(=O)[C@](C)(O)C3(CC3)C(C)=C21", 1),
    ("O=c1cc(-c2ccccc2)oc2cc(OCCCNCc3ccccc3)cc(O)c12", 1),
    ("O=C(Nc1cccc(C(F)(F)F)c1)c1cncc(C#Cc2cnc3ccc(N4CCOCC4)nn23)c1", 1),
]

Q: Hi team, can someone confirm the assay call for O=C(NO)c1ccc(CNC(=O)[C@H]2Cc3c([nH]c4ccccc34)[C@H](c3ccccc3)N2)cc1 ?
Ans: 0

Q: Assay outcome for Cc1cc(=O)oc2cc(OCCCCOc3ccc(/C=C/C(=O)Nc4cccc(Cl)c4)cc3)ccc12 : what was it?
Ans: 0

Q: So what was the verdict on Cc1ccc(-c2cc(-c3cc4ccccc4nc3Cl)[nH]c(=O)n2)cc1 in this test?
Ans: 1

----------
System: HCT-116 colon
ASSAY_OVERVIEW: NCI-60 one-dose screen, 48 h (100 = growth as untreated, 0 = no growth, -100 = all killed)
TEST_CONDITIONS: 10 µM
About 83,000 compounds went through this panel and 20% of them were active in at least one assay; those are over-represented in the sample as a whole.
Collected growth values appear next to each entry.
Hi! Could you send only the number? It should be in %, unit omitted.

# COMPOUND, growth [%]
rows = [
    ("Cc1cc2nc3c4ccccc4n(CCO)c3nc2cc1C", 34.4),
    ("Cc1ccc(-c2ccc(SCC(=O)Nc3ccc(S(N)(=O)=O)cc3Br)nn2)cc1", -7.84),
]

Here's the next entry for you.
compound CN1C(=O)N(C)C2SC(N/N=C/c3cccs3)=NC21 (stereo not drawn) , growth observed: 28.2

----------
# growth per record follows
Test system: SN12C renal
ASSAY_OVERVIEW: NCI-60 one-dose screen, 48 h (100 = growth as untreated, 0 = no growth, -100 = all killed)
TEST_CONDITIONS: 10 µM
This is part of a sample that, as a whole, favours compounds with a hit. Of some 83,000 tested, about 20% had one in any assay.
Number only, in %; omit the unit.

# COMPOUND, SCALE_UNIT, growth
rows = [
    ("CC1=C(C(=O)OC(C)C)C(c2ccc(O)cc2)NC(=S)N1 (configuration not stated)", "%", 105),
    ("COc1ccc(C=CC(=O)c2ccc(-n3c(C)nc4c(cnn4-c4ccccc4)c3=O)cc2)cc1", "%", 81.6),
    ("CC1(c2ccccc2)NC(=O)N(CC(=O)Nc2ccc(C(=O)/C=C/c3ccc(Br)cc3)cc2)C1=O (configuration not stated)", "%", 51.2),
    ("Cc1ccc(-c2cc(C(=O)N=Nc3c(O)[nH]c4ccc(Br)cc34)c3ccccc3n2)cc1", "%", 48.6),
    ("Cc1ccc(CNC(=O)Cc2ccc3c(c2)CN(C2CCC(=O)NC2=O)C3=O)cc1 (configuration not stated)", "%", 4.57),
    ("CC(C)C(=O)Nc1ccc(C(=O)NC(=S)Nc2ccc(C(=O)O)cc2)cc1", "%", 96.3),
    ("Brc1ccc(/C=N/Nc2ncnc3sc4c(c23)CCN(Cc2ccccc2)C4)cc1", "%", 64.4),
    ("O=c1[nH]c2ccccc2cc1CSc1ccc(Nc2nccc(-c3ccc(Cl)cc3)n2)cc1", "%", -47.7),
    ("S=c1nc(-c2ccccc2)cc(-c2cc3ccccc3nc2Cl)[nH]1", "%", 88.3),
    ("Cc1cc(C)nc(NS(=O)(=O)c2ccc(N/C(N)=N/c3nccc(-c4ccccc4)n3)cc2)n1", "%", 73.6),
]

Note to self: growth recorded for O=C(c1ccc([N+](=O)[O-])c([N+](=O)[O-])c1O)n1[nH]c(=O)c2ccccc2c1=O was 70.2

Data point: COc1cc(/C=C/C(=O)c2ccc(NC(=O)CN3C(=O)NC(C)(c4ccccc4)C3=O)cc2)cc(OC)c1OC (configuration not stated) ; growth = 10.7
